// data source = patent US20230183219A1

Assayed System: Human M4 (Homo sapiens)
Construct: Human or rat M4 cDNA, along with the chimeric G protein Gqi5, were transfected into Chinese hamster ovary (CHO-K1) cells
Sequence (P08173 1-479): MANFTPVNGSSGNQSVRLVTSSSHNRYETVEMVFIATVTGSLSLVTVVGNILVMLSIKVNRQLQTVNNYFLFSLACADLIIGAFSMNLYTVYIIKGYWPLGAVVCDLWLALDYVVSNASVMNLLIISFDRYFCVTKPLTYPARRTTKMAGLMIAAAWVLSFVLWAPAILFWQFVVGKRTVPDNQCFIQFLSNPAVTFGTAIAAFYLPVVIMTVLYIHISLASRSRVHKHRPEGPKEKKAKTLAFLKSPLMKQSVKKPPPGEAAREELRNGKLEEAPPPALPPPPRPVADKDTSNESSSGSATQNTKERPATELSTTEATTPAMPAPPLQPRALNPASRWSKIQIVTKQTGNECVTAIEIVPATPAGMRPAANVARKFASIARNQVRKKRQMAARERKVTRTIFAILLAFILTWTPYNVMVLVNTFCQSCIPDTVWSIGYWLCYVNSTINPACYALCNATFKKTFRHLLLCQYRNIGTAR
Test Description: mAChR M4 cell-based functional assay (calcium flux, decrease of EC80 acetylcholine response)
Cond: M4/Gqi5/CHO-K1 cells; decrease of response to EC80 acetylcholine
yes if IC50 is below 200 nM. no if not; exact matches included in no.

Field: example entries. Status: answers known.
{"Molecule": "[2H]C([2H])(C1CCOCC1)N1C[C@H]2C[C@H](Nc3nnc(-c4cc(F)ccc4C)cc3C(F)(F)F)C[C@H]2C1", "Label Class": "yes"}
{"Molecule": "Cc1ccc(C)c(-c2cc(C(F)(F)F)c(N[C@H]3C[C@@H]4CN(CC5CCOCC5)C[C@@H]4C3)nn2)c1", "Label Class": "yes"}
{"Molecule": "CC(C)Oc1cc(F)c(-c2cc(C(F)(F)F)c(N[C@H]3C[C@@H]4CN(CC5CCOCC5)C[C@@H]4C3)nn2)cc1F", "Label Class": "no"}
{"Molecule": "[2H]C([2H])(C1CCOCC1)N1C[C@H]2C[C@H](Nc3nnc(-c4ccccc4OC)cc3C(F)(F)F)C[C@H]2C1", "Label Class": "yes"}
{"Molecule": "COc1ccc(F)c(-c2cc(C(F)(F)F)c(N[C@H]3C[C@@H]4CN(CC5CCOCC5)C[C@@H]4C3)nn2)c1", "Label Class": "no"}

Input [2H]C([2H])(C1CCOCC1)N1C[C@H]2C[C@H](Nc3nnc(-c4cc(C)ccc4C)cc3C(F)(F)F)C[C@H]2C1 ; condition: IC50 strictly below 200 nM. Does it hold?
yes

Input Cc1ccc(-c2cc(C(F)(F)F)c(N[C@H]3C[C@@H]4CN(CC5CCOCC5)C[C@@H]4C3)nn2)c(F)c1 ; condition: IC50 strictly below 200 nM. Does it hold?
no

Input Cn1cc2cc(-c3cc(C#N)c(N[C@H]4C[C@@H]5CN(CC6(C#N)CC6)C[C@@H]5C4)nn3)ccc2n1 ; condition: IC50 strictly below 200 nM. Does it hold?
no

Input [2H]C([2H])(C1CCOCC1)N1C[C@H]2C[C@H](Nc3nnc(-c4ccc(OC)cc4C)cc3C(F)(F)F)C[C@H]2C1 ; condition: IC50 strictly below 200 nM. Does it hold?
yes

Input [2H]C([2H])(C1CCOCC1)N1C[C@H]2C[C@H](Nc3nnc(-c4cc(F)ccc4Cl)cc3C(F)(F)F)C[C@H]2C1 ; condition: IC50 strictly below 200 nM. Does it hold?
yes

Input Cc1ccc(F)cc1-c1cc(C(F)(F)F)c(N[C@H]2C[C@@H]3CN(CC4CCCOC4)C[C@@H]3C2)nn1 (single isomer, unassigned) [Example 120] ; condition: IC50 strictly below 200 nM. Does it hold?
yes

Input COc1cc(F)c(-c2cc(C(F)(F)F)c(N[C@H]3C[C@@H]4CN(CC5CCOCC5)C[C@@H]4C3)nn2)cc1F ; condition: IC50 strictly below 200 nM. Does it hold?
yes

Input FC(F)(F)c1cc(-c2cccnc2)nnc1N[C@H]1C[C@@H]2CN(CC3CCOCC3)C[C@@H]2C1 ; condition: IC50 strictly below 200 nM. Does it hold?
yes
